Target: c-Kit expressed on the cell surface of M-07e cells (human, UniProt P10721 26-976)
Sequence (P10721 26-976): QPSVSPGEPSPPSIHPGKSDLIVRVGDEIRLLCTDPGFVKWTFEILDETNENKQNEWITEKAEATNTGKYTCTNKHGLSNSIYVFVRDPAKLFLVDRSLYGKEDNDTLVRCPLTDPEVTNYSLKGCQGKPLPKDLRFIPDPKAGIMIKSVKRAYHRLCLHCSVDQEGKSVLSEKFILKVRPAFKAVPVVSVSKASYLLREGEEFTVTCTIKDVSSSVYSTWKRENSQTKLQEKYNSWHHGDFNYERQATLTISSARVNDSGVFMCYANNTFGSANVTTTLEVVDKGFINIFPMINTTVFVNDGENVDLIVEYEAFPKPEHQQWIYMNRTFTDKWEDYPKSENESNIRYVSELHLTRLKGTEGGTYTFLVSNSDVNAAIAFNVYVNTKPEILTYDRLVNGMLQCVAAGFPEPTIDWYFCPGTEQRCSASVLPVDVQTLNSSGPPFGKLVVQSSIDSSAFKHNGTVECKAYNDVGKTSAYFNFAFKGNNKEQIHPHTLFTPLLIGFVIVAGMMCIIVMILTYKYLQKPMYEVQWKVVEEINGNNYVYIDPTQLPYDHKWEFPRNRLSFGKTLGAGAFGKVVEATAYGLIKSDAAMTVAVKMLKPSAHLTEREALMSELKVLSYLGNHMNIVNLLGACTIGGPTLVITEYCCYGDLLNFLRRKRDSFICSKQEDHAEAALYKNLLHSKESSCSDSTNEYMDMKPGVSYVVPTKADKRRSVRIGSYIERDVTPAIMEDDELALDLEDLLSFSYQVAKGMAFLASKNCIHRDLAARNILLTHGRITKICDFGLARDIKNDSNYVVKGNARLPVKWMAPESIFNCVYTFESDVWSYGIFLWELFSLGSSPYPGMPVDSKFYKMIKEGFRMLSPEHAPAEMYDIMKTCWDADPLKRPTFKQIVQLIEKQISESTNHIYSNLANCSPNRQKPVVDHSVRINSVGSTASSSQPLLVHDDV
Assay: cell-based or functional assay
Reported endpoint: IC50, inhibition of SCF-dependent proliferation of M-07e cells (nM)
Dear colleague, please return just the value in nM, with no unit written.

hSR1-2 (antibody, human IgG1, kappa, V domains shown, also called humanized SR1-2; hSR1-H3 / hSR1-L2) VH: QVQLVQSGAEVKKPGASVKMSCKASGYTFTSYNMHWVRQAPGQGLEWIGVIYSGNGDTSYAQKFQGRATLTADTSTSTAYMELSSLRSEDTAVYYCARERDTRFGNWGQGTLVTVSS VL: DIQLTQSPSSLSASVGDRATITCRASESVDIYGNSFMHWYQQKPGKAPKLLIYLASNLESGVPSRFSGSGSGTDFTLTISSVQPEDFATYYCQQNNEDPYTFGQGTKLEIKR	0.142

Prompt line: Which measured IC50, inhibition of SCF-dependent proliferation of M-07e cells value corresponds to hSR1-6 (antibody, human IgG1, kappa, V domains shown, also called humanized SR1-6; hSR1-H3 / hSR1-L2r) VH: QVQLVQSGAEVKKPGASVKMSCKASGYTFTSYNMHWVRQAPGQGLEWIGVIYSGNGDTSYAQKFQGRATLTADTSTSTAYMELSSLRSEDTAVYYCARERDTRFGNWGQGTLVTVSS VL: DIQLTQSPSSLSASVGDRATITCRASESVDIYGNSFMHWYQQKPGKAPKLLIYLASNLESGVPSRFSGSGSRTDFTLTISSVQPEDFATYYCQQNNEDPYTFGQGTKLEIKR ?
Response line: 0.152
